Biological target: Human Recombinant Gelatinase A (MMP-2) (Homo sapiens, UniProt P08253)
Sequence (P08253 110-660): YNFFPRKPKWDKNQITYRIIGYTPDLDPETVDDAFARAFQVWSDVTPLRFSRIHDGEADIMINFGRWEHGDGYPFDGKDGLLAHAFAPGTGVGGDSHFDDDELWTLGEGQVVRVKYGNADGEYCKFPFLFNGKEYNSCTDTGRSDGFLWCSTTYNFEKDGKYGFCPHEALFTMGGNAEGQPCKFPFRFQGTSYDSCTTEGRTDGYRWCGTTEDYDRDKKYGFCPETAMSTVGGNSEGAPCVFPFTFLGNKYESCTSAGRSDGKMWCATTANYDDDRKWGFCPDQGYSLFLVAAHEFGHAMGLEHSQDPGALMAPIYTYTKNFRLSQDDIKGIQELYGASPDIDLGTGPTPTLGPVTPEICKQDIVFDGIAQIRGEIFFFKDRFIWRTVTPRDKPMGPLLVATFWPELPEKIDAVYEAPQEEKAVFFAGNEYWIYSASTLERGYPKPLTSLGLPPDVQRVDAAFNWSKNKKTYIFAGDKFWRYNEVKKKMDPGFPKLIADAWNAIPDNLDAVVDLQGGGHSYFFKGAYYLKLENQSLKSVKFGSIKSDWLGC
Assay: P218 quenched fluorescence assay for MMP inhibition: MMP-2
Format: biochemical
Reported Endpoint: pIC50
The read-out pIC50 is expressed as -log10 of concentration in moles per litre.

What measured pIC50 goes with O=C(CC(CCN1C(=O)c2ccccc2C1=O)C(=O)O)c1ccc(-c2ccc(C#CCO)cc2)cc1 (stereo not shown) ?
9.00

###

MMP-9 Fluorogenic, I (percent inhibition) overview
Target: Human Recombinant Gelatinase B (MMP-9) (Homo sapiens)
Construct: made in house; host or cells: baculovirus protein expression system
Sequence (P14780 107-707 limits assumed): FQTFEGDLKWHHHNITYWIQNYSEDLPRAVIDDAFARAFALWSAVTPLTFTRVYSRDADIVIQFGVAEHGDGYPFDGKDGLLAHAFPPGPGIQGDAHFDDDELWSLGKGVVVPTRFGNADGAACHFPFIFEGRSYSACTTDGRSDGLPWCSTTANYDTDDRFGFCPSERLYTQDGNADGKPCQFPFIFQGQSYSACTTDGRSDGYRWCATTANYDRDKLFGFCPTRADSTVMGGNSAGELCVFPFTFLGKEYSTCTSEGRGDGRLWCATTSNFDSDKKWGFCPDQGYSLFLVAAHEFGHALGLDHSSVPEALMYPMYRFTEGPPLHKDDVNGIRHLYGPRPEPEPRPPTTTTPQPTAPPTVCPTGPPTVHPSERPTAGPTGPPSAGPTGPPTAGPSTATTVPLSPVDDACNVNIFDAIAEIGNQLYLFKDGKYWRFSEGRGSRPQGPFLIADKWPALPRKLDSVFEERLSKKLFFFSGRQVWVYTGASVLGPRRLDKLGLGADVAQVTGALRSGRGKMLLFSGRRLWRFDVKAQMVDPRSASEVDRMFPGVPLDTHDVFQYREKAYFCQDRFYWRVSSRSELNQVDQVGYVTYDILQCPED
Experiment: P218 quenched fluorescence assay for MMP inhibition: MMP-9
Assay type: biochemical
Details: inhibitor concentration not given; P218 substrate 6 μM, pH 6.5, 25 min at 37° C.
Give me the value, and tack the unit on after it.

Answered examples (3):
O=C(O)CCC#Cc1ccc(-c2ccc(C(=O)CC(CCCc3ccccc3)C(=O)O)cc2)cc1 (stereo not shown)    27%
O=C(C[C@H](CCCc1ccccc1)C(=O)O)c1ccc(-c2ccc(C#CCO)cc2)cc1    35%
O=C(CC(CCCc1ccccc1)C(=O)O)c1ccc(-c2ccc(C#Cc3cccc(O)c3)cc2)cc1 (stereo not shown)    46%

Attention now turns to another entry.
What measured MMP-9 Fluorogenic, I (percent inhibition) goes with O=CCCCC#Cc1ccc(-c2ccc(C(=O)CC(CCCc3ccccc3)C(=O)O)cc2)cc1 (stereo not shown) ?
24%

###

pIC50 overview
Target: Recombinant Human CHO Stromelysin (MMP-3) (Homo sapiens, UniProt P08254)
Sequence (P08254 100-477): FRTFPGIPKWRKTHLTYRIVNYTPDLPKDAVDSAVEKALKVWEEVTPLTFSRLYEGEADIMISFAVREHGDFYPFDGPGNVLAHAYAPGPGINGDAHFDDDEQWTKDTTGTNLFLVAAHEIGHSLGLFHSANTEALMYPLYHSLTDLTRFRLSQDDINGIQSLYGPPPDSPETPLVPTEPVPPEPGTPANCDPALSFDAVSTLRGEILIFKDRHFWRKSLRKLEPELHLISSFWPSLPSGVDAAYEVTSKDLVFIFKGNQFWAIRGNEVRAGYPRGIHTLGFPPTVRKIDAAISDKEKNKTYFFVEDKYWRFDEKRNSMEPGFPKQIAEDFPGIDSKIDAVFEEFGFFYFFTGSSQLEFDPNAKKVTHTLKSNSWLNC
Assay: P218 quenched fluorescence assay for MMP inhibition: MMP-3
Conditions: P218 substrate 6 μM, pH 6.5, 25 min at 37° C.; read-out: MMP-3 Fluorogenic IC-50
The read-out pIC50 is expressed as -log10 of concentration in moles per litre.

CC(=O)OCC#Cc1ccc(-c2ccc(C(=O)CC(CCCc3ccccc3)C(=O)O)cc2)cc1 (stereo not shown)    7.44
CCCN(CC#Cc1ccc(-c2ccc(C(=O)CC(CCCc3ccccc3)C(=O)O)cc2)cc1)CCC (stereo not shown)    6.49
CC(=O)OCCC#Cc1ccc(-c2ccc(C(=O)CC(CCCc3ccccc3)C(=O)O)cc2)cc1 (stereo not shown)    7.24
O=C(CC(CCCc1ccccc1)C(=O)O)c1ccc(-c2ccc(C#CCCO)cc2)cc1 (stereo not shown)    7.49
O=C(C[C@H](CCCc1ccccc1)C(=O)O)c1ccc(-c2ccc(C#CCO)cc2)cc1    5.66
O=C(CC(CCN1C(=O)c2ccccc2C1=O)C(=O)O)c1ccc(-c2ccc(C#CCOCc3ccccc3)cc2)cc1 (stereo not shown)    7.96

Record lookup: for Recombinant Human CHO Stromelysin (MMP-3) (Homo sapiens, UniProt P08254), what pIC50 belongs to O=CCCCC#Cc1ccc(-c2ccc(C(=O)CC(CCCc3ccccc3)C(=O)O)cc2)cc1 (stereo not shown) ?
5.76

Record lookup: for Recombinant Human CHO Stromelysin (MMP-3) (Homo sapiens, UniProt P08254), what pIC50 belongs to O=C(CC(CCN1C(=O)c2ccccc2C1=O)C(=O)O)c1ccc(-c2ccc(C#CCO)cc2)cc1 (stereo not shown) ?
8.40
